Where do these numbers come from? They come from PubChem BioAssay (NCI).

Tested on: MDA-MB-231 breast
assay comment: NCI tumour cell line growth inhibition, 48 h
# TGI >= 30 µM gives Fulfilled, anything below gives Not fulfilled

compound	answer label
O=C(O)c1ccccc1Nc1ccc2nnc(-c3ccncc3)n2n1	Not fulfilled
CC(CN)[C@@H]1CC[C@]2(CO)CC[C@]3(C)[C@H](CC[C@@H]4[C@@]5(C)CCC(N)C(C)(C)[C@@H]5CC[C@]43C)[C@@H]12 (some centres undefined)	Not fulfilled
COC(=O)[C@@H]1OC(C)(c2ccccc2)O[C@H]1C(=O)OC	Fulfilled
O=C(COc1ccc(Cl)cc1Cl)N/N=C/C=C/c1ccc([N+](=O)[O-])o1	Fulfilled
O=C(/C=C/c1ccc2c(c1)OCO2)CC(=O)/C=C/c1ccc2c(c1)OCO2	Fulfilled
CCN1CCN(c2ccc(Nc3ncc4ccc5ncn(C(C)C)c5c4n3)nc2)CC1	Not fulfilled

Does the reported TGI for "COc1ccc2c(c1)CC[C@@H]1[C@@H]2CC[C@]2(C)C(=O)/C(=C/c3ccc(O)c(OC)c3)C[C@@H]12" fall at or above the 30 µM mark? Fulfilled

Does the reported TGI for "O=c1[nH]c2cc([N+](=O)[O-])ccc2nc1/C=C(\O)c1ccc(Cl)cc1" fall at or above the 30 µM mark? Not fulfilled

Does the reported TGI for Oc1cccc2c1[nH]c1c(C3=C[C@@]4(O)CC/C=C\CCCCN5CC[C@@H]3[C@]3(CC6/C=C\CCCCN6[C@H]34)C5)nccc12 (some centres undefined) fall at or above the 30 µM mark? Not fulfilled

Does the reported TGI for "CCO/C=C(\C(=O)OC)S(=O)(=O)c1ccc(C)cc1" fall at or above the 30 µM mark? Fulfilled

Does the reported TGI for "COc1ccc(N=CN(C)C)c(C)c1" fall at or above the 30 µM mark? Fulfilled

Does the reported TGI for "Cc1c(-c2nnc(-c3cc(Cl)c(Cl)cc3Cl)o2)nnn1-c1ccnc2c(C(F)(F)F)cccc12" fall at or above the 30 µM mark? Fulfilled

Does the reported TGI for COc1ccc(C2C(C=O)C(N3CCN(C)CC3)=Nc3nc4ccccc4n32)cc1 (centres undefined) fall at or above the 30 µM mark? Fulfilled

Does the reported TGI for "O=C(O)CCSC(=S)Nc1ccc([N+](=O)[O-])cc1" fall at or above the 30 µM mark? Fulfilled
